System: MCF7
test_description: Cell cycle arrest in human MCF7 cells assessed as accumulation at G0/G1 phase at 2 times GI50 after 24 hrs by flow cytometry
Format: functional
Kindly note that classification relies on Activity with these boundaries: 0 (below 30%), 1 (30% to below 60%), 2 (60% or more)

The examples below pair each entry with its known result.
# compound, group
rows = [
    ("CCC(C)SSc1ncc[nH]1 (stereo not drawn) [PX-12]", 0),
    ("O=C(NCCCl)Nc1ccc2c(c1)CCC2", 1),
    ("O=C(NCCCl)Nc1cccc(Oc2ccccc2)c1", 1),
    ("O=C(NCCCl)Nc1ccc2c(c1)Cc1ccccc1-2", 0),
    ("O=C(NCCCl)Nc1ccc2c(c1)CCCC2", 0),
]

Next up:
-- ask Each compound maps to one class by Activity. Which class for `CCCC1(c2ccc(NC(=O)NCCCl)cc2)CCCCC1` ?
-- reply 2

The origin of these recorded values is ChEMBL document CHEMBL1155843.
